Assay: Permeability of the compound
Assay type: ADME
Conditions: not told; read-out: permeability

{"given_smiles": "COc1c(C(=O)Nc2ccc(NS(=O)(=O)CCN3CCOCC3)cc2)cc(N2CCC(=O)NC2=O)cc1C(C)(C)C", "Papp": "0.1 ×10⁻⁶ cm/s"}
{"given_smiles": "COc1ccc(N2CCC(=O)NC2=O)cc1C(C)(C)C", "Papp": "5.5 ×10⁻⁶ cm/s"}
{"given_smiles": "COc1c(C(=O)Nc2ccc(NS(C)(=O)=O)cc2)cc(N2CCC(=O)NC2=O)cc1C(C)(C)C", "Papp": "0.5 ×10⁻⁶ cm/s"}
{"given_smiles": "COc1c(C(=O)Nc2ccccc2)cc(N2CCC(=O)NC2=O)cc1C(C)(C)C", "Papp": "1.4 ×10⁻⁶ cm/s"}
{"given_smiles": "COc1c(C(=O)Nc2ccc(NS(C)(=O)=O)cc2)cc(-n2ccc(=O)[nH]c2=O)cc1C(C)(C)C", "Papp": "0.2 ×10⁻⁶ cm/s"}
